- System: PD1-ss+10aa/Gaussia Luciferase
- ASSAY OVERVIEW: Dox-Induced PD1-ss-Gluc Assay
- Format: cell-based
- COND: 24 hr doxycycline induction, 293FRT/TO cells, Gaussia luciferase signal; read-out: 24 hr Dox Inducible PD1ssGluc 293FRT/TO: Mean IC50
Answer each item with its documented IC50.

### Prompt State the recorded IC50 for this entry: CC(C)OC(C)(C)c1csc(NC(=O)c2cncn2Cc2ccncc2)n1 [Compound A104]
### Response > 25 µM

### Prompt State the recorded IC50 for this entry: CC(C)OC(C)(C)c1csc(NC(=O)c2ccc(C(N)=O)n2Cc2ccncc2)n1 [Compound A105]
### Response > 25 µM

### Prompt State the recorded IC50 for this entry: O=C(Nc1nc(N2CCCCC2)cs1)c1cccn1Cc1ccncc1 [Compound A264]
### Response > 25 µM

---

- System: PD1-ss+10aa/Gaussia Luciferase
- ASSAY OVERVIEW: Dox-Induced PD1-ss-Gluc Assay
- Format: cell-based
- COND: 24 hr doxycycline induction, 293FRT/TO cells, Gaussia luciferase signal; read-out: 24 hr Dox Inducible PD1ssGluc 293FRT/TO: Mean IC50
Answer each item with its documented pIC50.
Convention used: pIC50 is expressed as -log10 of the molar concentration.

### Prompt State the recorded pIC50 for this entry: N#Cc1ccc(/C=C/c2csc(NC(=O)c3cccn3Cc3ccncc3)n2)cc1 [Compound A224]
### Response 6.85

### Prompt State the recorded pIC50 for this entry: O=C(Nc1nc(/C=C/C2CCOCC2)cs1)c1cccn1Cc1ccncc1 [Compound A153]
### Response 6.04

### Prompt State the recorded pIC50 for this entry: CCc1sc(NC(=O)c2cccn2Cc2ccncc2)nc1CN1CCN(S(=O)(=O)CC)CC1 [Compound A92]
### Response 4.88

### Prompt State the recorded pIC50 for this entry: O=C(Nc1nc(/C=C/c2ccncc2)cs1)c1cccn1Cc1ccncc1 [Compound A166]
### Response 4.87

### Prompt State the recorded pIC50 for this entry: O=C(Nc1nc(/C=C/c2ccccn2)cs1)c1cccn1Cc1ccncc1 [Compound A164]
### Response 7.01

### Prompt State the recorded pIC50 for this entry: O=C(Nc1nc(/C=C/c2cnc3c(c2)OCO3)cs1)c1cccn1Cc1ccncc1 [Compound A274]
### Response 6.44

### Prompt State the recorded pIC50 for this entry: O=C(Nc1nc(N2CCN(c3ccccc3)CC2)cs1)c1cccn1Cc1ccncc1 [Compound A266]
### Response 5.20

### Prompt State the recorded pIC50 for this entry: O=C(Nc1nc(Cc2ccccc2)cs1)c1cccn1Cc1ccncc1 [Compound A17]
### Response 6.72

### Prompt State the recorded pIC50 for this entry: CO[C@H]1CC[C@H](/C=C/c2csc(NC(=O)c3cccn3Cc3ccncc3)n2)CC1 [Compound A253]
### Response 6.66

### Prompt State the recorded pIC50 for this entry: O=C(Nc1nc(/C=C/c2ccc3c(n2)OCO3)cs1)c1cccn1Cc1ccncc1 [Compound A272]
### Response 6.58

### Prompt State the recorded pIC50 for this entry: C/C(=C\c1ccccc1)c1csc(NC(=O)c2cccn2Cc2ccncc2)n1 [Compound A247]
### Response 6.84

### Prompt State the recorded pIC50 for this entry: O=C(Nc1nc(/C=C/c2cccnc2)cs1)c1cccn1Cc1ccncc1 [Compound A165]
### Response 5.78

### Prompt State the recorded pIC50 for this entry: O=C(Nc1nc(C2Cc3ccccc3C2)cs1)c1cccn1Cc1ccncc1 [Compound A281]
### Response 6.61

### Prompt State the recorded pIC50 for this entry: C[C@H](OC(C)(C)c1csc(NC(=O)c2cccn2CCCc2ccncc2)n1)c1ccccc1 [Compound A6]
### Response 7.34
